Data provenance: ChEMBL document CHEMBL4251732

# assay.text: Oral bioavailability in Sprague-Dawley rat at 100 mg/kg administered as single dose via gavage by LC-MS/MS analysis
# Type: ADME, organism-based
# condition.info: in vivo
observable: bioavailability (%)
# output: bare number, implied unit %

Return bioavailability for the following compound: "Nc1ccccc1NC(=O)c1ccc(C(=O)NCCNc2nonc2/C(=N/O)Nc2ccc(F)c(Br)c2)cc1" 18

---

# target.or.test.system: Indoleamine 2,3-dioxygenase 1 (Homo sapiens, UniProt P14902)
# Sequence (P14902 whole entry): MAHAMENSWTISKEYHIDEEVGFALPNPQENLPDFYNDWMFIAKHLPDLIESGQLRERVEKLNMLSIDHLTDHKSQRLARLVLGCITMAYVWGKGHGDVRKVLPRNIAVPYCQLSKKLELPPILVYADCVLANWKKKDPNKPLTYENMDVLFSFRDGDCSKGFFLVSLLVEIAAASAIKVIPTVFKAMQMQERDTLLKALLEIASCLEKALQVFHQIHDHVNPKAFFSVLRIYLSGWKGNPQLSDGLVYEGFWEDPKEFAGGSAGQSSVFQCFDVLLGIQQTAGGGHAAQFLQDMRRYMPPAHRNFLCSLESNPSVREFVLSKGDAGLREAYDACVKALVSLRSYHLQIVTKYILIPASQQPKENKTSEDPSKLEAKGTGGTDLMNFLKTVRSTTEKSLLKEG
# assay.text: Inhibition of IDO1 in IFN-gamma-stimulated human HeLa cells assessed as decrease in kynurenine levels after 48 hrs
# Type: cell-based
observable: pEC50
Please treat pEC50 as minus the base-10 logarithm of the molar concentration.

State recorded pEC50 with Indoleamine 2,3-dioxygenase 1 (Homo sapiens, UniProt P14902), entry "Nc1ccccc1NC(=O)c1ccc(C(=O)NCCNc2nonc2/C(=N/O)Nc2ccc(F)c(Br)c2)cc1" , no comment. 6.39

---

# assay.text: AUC (0 to infinity) in Sprague-Dawley rat at 100 mg/kg, po administered as single dose via gavage by LC-MS/MS analysis
# Assay type: ADME, organism-based
# Set-up: dose 100 mg/kg, time infinity, route oral
# condition.info: in vivo
observable: AUC(0-inf) (ng·h/mL)
Numeric only. Scale: ng·h/mL

substance_smiles=Nc1ccccc1NC(=O)c1ccc(C(=O)NCCNc2nonc2/C(=N/O)Nc2ccc(F)c(Br)c2)cc1 quantitative_result=33500

Return value of AUC(0-inf) for input "NS(=O)(=O)NCCNc1nonc1C(=NO)Nc1ccc(F)c(Br)c1" , no commentary. 30700

---

# assay.text: Half life in immunocompetent C57BL/6 mouse implanted with mouse LLC cells at 100 mg/kg, po bid administered via gavage
# Type: ADME, organism-based
# condition.info: in vivo
observable: half-life

substance_smiles=Nc1ccccc1NC(=O)c1ccc(C(=O)NCCNc2nonc2/C(=N/O)Nc2ccc(F)c(Br)c2)cc1 result="3.4 h"

Switching to the query record.
Give the reported value of half-life for this record: "NS(=O)(=O)NCCNc1nonc1C(=NO)Nc1ccc(F)c(Br)c1" 4.5 h

---

# target.or.test.system: Histone deacetylase 1 (Homo sapiens)
# Sequence (Q13547 whole entry): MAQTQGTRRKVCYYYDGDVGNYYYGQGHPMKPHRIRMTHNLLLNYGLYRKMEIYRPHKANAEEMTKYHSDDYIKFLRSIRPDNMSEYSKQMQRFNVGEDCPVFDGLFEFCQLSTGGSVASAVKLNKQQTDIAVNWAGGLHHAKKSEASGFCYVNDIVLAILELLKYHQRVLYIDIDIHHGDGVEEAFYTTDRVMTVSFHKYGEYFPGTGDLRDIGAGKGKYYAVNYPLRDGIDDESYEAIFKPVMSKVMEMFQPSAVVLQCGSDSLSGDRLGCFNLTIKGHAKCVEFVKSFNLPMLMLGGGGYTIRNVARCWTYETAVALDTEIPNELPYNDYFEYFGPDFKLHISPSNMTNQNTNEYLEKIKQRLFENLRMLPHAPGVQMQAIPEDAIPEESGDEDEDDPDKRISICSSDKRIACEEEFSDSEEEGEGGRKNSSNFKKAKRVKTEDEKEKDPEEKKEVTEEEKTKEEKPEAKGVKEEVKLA
# assay.text: Inhibition of recombinant human full length HDAC1 using fluorogenic substrate 3 after 30 mins by fluorescence assay
// boundary case: IC50 equal to 70 nM maps to Condition not met; strictly smaller maps to Condition met

API: query returns whether the compound falls strictly under 70 nM in IC50. Query: "O=C(CCCCCn1cc(-c2ccc(C(=O)NCCNc3nonc3/C(=N/O)Nc3ccc(F)c(Br)c3)cc2)nn1)NO" Condition met

---

# Tested on: CT26
# assay.text: Antiproliferative activity against mouse CT26 cells after 48 hrs by CCK-8 assay
# Type: functional, cell-based
# condition.info: CT26, 48 h
observable: IC50

Here is how some molecules turned out for IC50.
substance_smiles=O=C(CCCCn1cc(-c2ccc(C(=O)NCCNc3nonc3/C(=N/O)Nc3ccc(F)c(Br)c3)cc2)nn1)NO target_or_test_system=CT26 result="> 100 µM"
substance_smiles=O=C(CCCCCCC(=O)NCCNc1nonc1/C(=N/O)Nc1ccc(F)c(Br)c1)NO target_or_test_system=CT26 result="97.5 µM"

Supply measured IC50 of "O=C(NO)c1ccc(C(=O)NCCNc2nonc2/C(=N/O)Nc2ccc(F)c(Br)c2)cc1" in your reply. > 100 µM

Complete the entry with IC50 for "Nc1ccccc1NC(=O)c1ccc(C(=O)NCCNc2nonc2/C(=N/O)Nc2ccc(F)c(Br)c2)s1" 38.8 µM

Give reported IC50 value for "O=C(/C=C/c1cccc(C(=O)NCCNc2nonc2/C(=N/O)Nc2ccc(F)c(Br)c2)c1)NO" 38.9 µM

Please report the measured IC50 for "O=C(CCCCCn1cc(-c2ccc(C(=O)NCCNc3nonc3/C(=N/O)Nc3ccc(F)c(Br)c3)cc2)nn1)NO" > 100 µM

Tell me its IC50 given "O=C(CCCCCCn1cc(-c2ccc(C(=O)NCCNc3nonc3/C(=N/O)Nc3ccc(F)c(Br)c3)cc2)nn1)NO" as the entry. 90.2 µM
